- target-entity: Solute carrier family 22 member 6 (Mus musculus, UniProt Q8VC69)
- Sequence (Q8VC69 whole entry): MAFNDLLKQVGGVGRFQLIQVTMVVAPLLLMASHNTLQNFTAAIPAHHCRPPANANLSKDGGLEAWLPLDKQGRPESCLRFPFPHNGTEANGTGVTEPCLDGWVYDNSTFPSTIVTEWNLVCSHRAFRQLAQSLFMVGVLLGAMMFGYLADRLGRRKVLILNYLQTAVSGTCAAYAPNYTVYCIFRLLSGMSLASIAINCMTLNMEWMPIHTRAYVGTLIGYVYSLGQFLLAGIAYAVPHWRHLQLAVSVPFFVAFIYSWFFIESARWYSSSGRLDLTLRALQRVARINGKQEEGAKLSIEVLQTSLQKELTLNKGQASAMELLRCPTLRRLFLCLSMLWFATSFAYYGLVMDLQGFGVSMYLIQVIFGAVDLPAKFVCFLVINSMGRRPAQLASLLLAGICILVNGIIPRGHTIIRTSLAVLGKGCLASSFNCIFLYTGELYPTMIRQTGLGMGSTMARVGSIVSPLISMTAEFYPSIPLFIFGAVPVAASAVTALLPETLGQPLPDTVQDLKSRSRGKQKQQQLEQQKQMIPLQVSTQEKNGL
- method: Inhibition of mouse OAT1 expressed in CHO cells assessed as inhibition of fluorescein uptake at 500 uM over 20 mins relative to untreated-control
- Type: ADME, cell-based

smiles-notation: Cc1onc(-c2ccccc2)c1C(=O)N[C@@H]1C(=O)N2[C@@H]1SC(C)(C)[C@@H]2C(=O)O
target-entity: Solute carrier family 22 member 6 (Mus musculus, UniProt Q8VC69)
inhibition (INH): Not Active
--
smiles-notation: COc1cccc(OC)c1C(=O)N[C@@H]1C(=O)N2[C@@H]1SC(C)(C)[C@@H]2C(=O)O
target-entity: Solute carrier family 22 member 6 (Mus musculus, UniProt Q8VC69)
inhibition (INH): Not Active
--
smiles-notation: C[C@H]1[C@H](NC(=O)/C(=N\OC(C)(C)C(=O)O)c2csc(N)n2)C(=O)N1S(=O)(=O)O
target-entity: Solute carrier family 22 member 6 (Mus musculus, UniProt Q8VC69)
inhibition (INH): Not Active
